B1: Azoarcus group I ribozyme (parent)
chain: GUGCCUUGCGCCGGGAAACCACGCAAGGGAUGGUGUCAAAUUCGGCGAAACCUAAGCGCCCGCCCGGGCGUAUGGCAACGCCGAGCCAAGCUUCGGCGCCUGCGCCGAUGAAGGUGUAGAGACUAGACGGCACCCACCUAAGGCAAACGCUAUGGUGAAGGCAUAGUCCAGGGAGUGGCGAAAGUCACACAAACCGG

variants of: B1; experiment: reverse-splicing fitness (ratio to wild type); higher = more active; in vitro selection; Mg2+ level not given
# reverse-splicing fitness listing for each entry below

{"mutation.name": "A111C A120G A145C C150A C169G U176G", "reverse-splicing fitness": 0.00527}
{"mutation.name": "C82U A111U A145U C150U C169U U176C", "reverse-splicing fitness": 0.0115}
{"mutation.name": "C82A A111U C150G C169A", "reverse-splicing fitness": 0.00953}
{"mutation.name": "C82A A111G A120C A145U C150G C169G U176G", "reverse-splicing fitness": 0.00589}
{"mutation.name": "C82G A111C A120C A145G C169A U176C", "reverse-splicing fitness": 0.0254}
{"mutation.name": "C82G A120C C150A C169G U176C", "reverse-splicing fitness": 0.0222}
{"mutation.name": "A111U A120G C150A C169A U176C", "reverse-splicing fitness": 0.0201}
{"mutation.name": "C82G A111C A120C A145C C169A", "reverse-splicing fitness": 0.00657}
{"mutation.name": "C82A A111C C150U C169U", "reverse-splicing fitness": 0.0128}
{"mutation.name": "A111C C150A C169G U176A", "reverse-splicing fitness": 0.016}
{"mutation.name": "C82A A111U A145C C150U C169A", "reverse-splicing fitness": 0.0081}
{"mutation.name": "C82U A111C A120G A145C C150U C169U U176G", "reverse-splicing fitness": 0.00401}
{"mutation.name": "C82G A111G A120U A145U C150A U176A", "reverse-splicing fitness": 0.00578}
{"mutation.name": "A120C C150U C169G", "reverse-splicing fitness": 0.0172}
{"mutation.name": "C82A A111G A120C C150G C169A U176G", "reverse-splicing fitness": 0.00791}
{"mutation.name": "C82G A111U A120C A145C C169G U176A", "reverse-splicing fitness": 0.0301}
{"mutation.name": "C82U A111U A120C A145U C150U C169G U176A", "reverse-splicing fitness": 0.011}
{"mutation.name": "A111C A145C C150G C169A", "reverse-splicing fitness": 0.00983}
{"mutation.name": "A111G A120U A145C C150G U176A", "reverse-splicing fitness": 0.0114}
{"mutation.name": "C82U A111U A120U C150G C169U U176G", "reverse-splicing fitness": 0.00264}
{"mutation.name": "C82A A111U A120G A145U C150G C169U", "reverse-splicing fitness": 0.00845}
{"mutation.name": "A120G A145U", "reverse-splicing fitness": 0.508}
